Ref: ChEMBL document CHEMBL4028801

ASSAY_SUMMARY: Drug concentration at steady state in human at 600 mg, po QD after 24 hrs
Format: ADME, organism-based
CONDITIONS: in vivo, read-out: Css
PROPERTY_NAME: concentration at 24 h

{"columns": ["MOLECULE", "PROPERTY_NAME", "RESULT"],
 "data": [
  ["CC#C[C@]1(O)CC[C@H]2[C@@H]3CCC4=CC(=O)CCC4=C3[C@@H](c3ccc(N(C)C)cc3)C[C@@]21C", "concentration at 24 h", "7.56 µM"]
]}

====

ASSAY_SUMMARY: Drug concentration at steady state in human at 800 mg administered once per week for 6 weeks through intravesical instillation measured after 6 hrs
Assay type: ADME
CONDITIONS: in vivo, read-out: Css
PROPERTY_NAME: concentration at 6 h (nM)

{"columns": ["MOLECULE", "NUMERIC_VALUE"],
 "data": [
  ["CCCCC(=O)OCC(=O)[C@]1(O)Cc2c(O)c3c(c(O)c2[C@@H](O[C@H]2C[C@H](NC(=O)C(F)(F)F)[C@H](O)[C@H](C)O2)C1)C(=O)c1c(OC)cccc1C3=O", 131]
]}

====

SYSTEM_UNDER_TEST: ATP-binding cassette sub-family C member 4 (Homo sapiens, UniProt O15439)
Sequence (O15439 whole entry): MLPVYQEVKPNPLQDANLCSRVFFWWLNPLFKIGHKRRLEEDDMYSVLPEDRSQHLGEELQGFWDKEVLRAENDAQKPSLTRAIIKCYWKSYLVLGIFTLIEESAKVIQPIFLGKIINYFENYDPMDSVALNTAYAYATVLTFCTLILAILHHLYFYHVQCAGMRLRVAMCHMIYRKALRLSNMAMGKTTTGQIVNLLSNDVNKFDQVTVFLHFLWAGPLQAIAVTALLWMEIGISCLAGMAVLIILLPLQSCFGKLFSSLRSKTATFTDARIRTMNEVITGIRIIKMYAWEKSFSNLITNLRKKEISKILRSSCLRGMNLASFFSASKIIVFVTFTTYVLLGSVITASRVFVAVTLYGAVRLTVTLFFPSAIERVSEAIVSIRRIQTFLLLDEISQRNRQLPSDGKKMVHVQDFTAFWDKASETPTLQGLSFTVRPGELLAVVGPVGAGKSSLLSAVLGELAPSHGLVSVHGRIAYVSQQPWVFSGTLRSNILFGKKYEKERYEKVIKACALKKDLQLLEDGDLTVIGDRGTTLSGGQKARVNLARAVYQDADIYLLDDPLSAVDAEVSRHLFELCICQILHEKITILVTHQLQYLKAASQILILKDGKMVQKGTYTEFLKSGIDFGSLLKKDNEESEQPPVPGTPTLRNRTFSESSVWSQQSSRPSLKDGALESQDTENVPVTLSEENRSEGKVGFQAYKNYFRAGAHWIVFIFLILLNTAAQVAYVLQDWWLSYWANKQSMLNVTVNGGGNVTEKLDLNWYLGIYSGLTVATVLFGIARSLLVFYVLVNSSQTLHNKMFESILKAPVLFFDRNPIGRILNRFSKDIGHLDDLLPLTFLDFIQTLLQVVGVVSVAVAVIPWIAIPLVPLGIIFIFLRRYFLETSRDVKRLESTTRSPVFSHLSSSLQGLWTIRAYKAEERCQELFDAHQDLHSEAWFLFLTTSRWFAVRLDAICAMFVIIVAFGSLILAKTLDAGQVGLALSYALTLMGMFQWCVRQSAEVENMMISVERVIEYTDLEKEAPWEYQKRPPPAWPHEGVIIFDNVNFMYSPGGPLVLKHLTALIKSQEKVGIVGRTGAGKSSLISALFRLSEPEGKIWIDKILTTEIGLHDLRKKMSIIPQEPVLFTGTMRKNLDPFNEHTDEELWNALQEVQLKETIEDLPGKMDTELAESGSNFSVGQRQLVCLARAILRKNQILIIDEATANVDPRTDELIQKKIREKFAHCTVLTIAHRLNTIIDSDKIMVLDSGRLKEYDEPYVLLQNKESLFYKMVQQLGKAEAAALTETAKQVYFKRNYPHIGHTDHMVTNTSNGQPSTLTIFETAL
ASSAY_SUMMARY: Inhibition of human MRP4 overexpressed in Sf9 cell membrane vesicles assessed as uptake of [3H]-estradiol-17beta-D-glucuronide in presence of ATP and GSH measured after 20 mins by membrane vesicle transport assay
pIC50: −log10 of the molar value. Where a name gives a salt, the structure may show the parent alone.

{"columns": ["COMPOUND", "pIC50"],
 "data": [
  ["CCOC(=O)[C@H](CCc1ccccc1)N[C@@H](C)C(=O)N1[C@H](C(=O)O)C[C@H]2CCCC[C@@H]21 [TRANDOLAPRIL]", "< 3.88"],
  ["Cc1onc(-c2ccccc2)c1-c1ccc(S(N)(=O)=O)cc1 [VALDECOXIB]", "< 3.88"],
  ["CCn1cc(C(=O)O)c(=O)c2cc(F)c(N3CCNCC3)nc21 [ENOXACIN]", "< 3.88"],
  ["CN(C)/N=N/c1[nH]cnc1C(N)=O [DACARBAZINE]", "< 3.88"],
  ["COc1cc(Cc2cnc(N)nc2N)cc(OC)c1OC [TRIMETHOPRIM]", "< 3.88"],
  ["N[C@@H](Cc1ccc(O)c(O)c1)C(=O)O [LEVODOPA]", "< 3.88"],
  ["CCCNCC(O)COc1ccccc1C(=O)CCc1ccccc1 (stereo not drawn) [PROPAFENONE]", "< 3.88"],
  ["O=c1[nH]cc(F)c(=O)[nH]1 [FLUOROURACIL]", "< 3.88"],
  ["Fc1ccc([C@@H]2CCNC[C@H]2COc2ccc3c(c2)OCO3)cc1 [PAROXETINE HYDROCHLORIDE]", "< 3.88"],
  ["COc1cc(C(=O)NS(=O)(=O)c2ccccc2C)ccc1Cc1cn(C)c2ccc(NC(=O)OC3CCCC3)cc12 [ZAFIRLUKAST]", 4.92],
  ["Nc1cccc2c1CN(C1CCC(=O)NC1=O)C2=O (stereo not drawn) [LENALIDOMIDE]", "< 3.88"],
  ["CC(C)C(=O)OCC(=O)[C@@]12O[C@H](C3CCCCC3)O[C@@H]1C[C@H]1[C@@H]3CCC4=CC(=O)C=C[C@]4(C)[C@H]3[C@@H](O)C[C@@]12C [CICLESONIDE]", "< 3.88"],
  ["CC1=C(/C=C/C(C)=C/C=C/C(C)=C\\C(=O)O)C(C)(C)CCC1 [ISOTRETINOIN]", "< 3.88"],
  ["Cc1ccc(C(=O)c2cc(O)c(O)c([N+](=O)[O-])c2)cc1 [TOLCAPONE]", 4.78],
  ["Cc1cn([C@H]2C=C[C@@H](CO)O2)c(=O)[nH]c1=O [STAVUDINE]", "< 3.88"],
  ["CN[C@@H]1C[C@H]2O[C@@](C)([C@@H]1OC)n1c3ccccc3c3c4c(c5c6ccccc6n2c5c31)C(=O)NC4 [STAUROSPORINE]", 4.42],
  ["Clc1ccc2nsnc2c1NC1=NCCN1 [TIZANIDINE]", "< 3.88"],
  ["CN1CC(=O)N2[C@H](c3ccc4c(c3)OCO4)c3[nH]c4ccccc4c3C[C@@H]2C1=O", "< 3.88"]
]}

====

ASSAY_SUMMARY: Drug concentration at steady state in human at 1.25 to 25 mg, po QD after 24 hrs
Type: ADME, organism-based
CONDITIONS: in vivo, read-out: Css

{"columns": ["COMPOUND", "concentration at 24 h / nM"],
 "data": [
  ["COc1ccc(Cl)cc1C(=O)NCCc1ccc(S(=O)(=O)NC(=O)NC2CCCCC2)cc1 [GLYBURIDE]", 112]
]}

====

ASSAY_SUMMARY: Drug concentration at steady state in human at 20 to 100 mg, po QD or 60 mg, po BID after 12 hrs
Type: ADME, organism-based
CONDITIONS: in vivo, read-out: Css

{"columns": ["COMPOUND", "concentration at 12 h"],
 "data": [
  ["COCCCOc1ccnc(C[S+]([O-])c2nc3ccccc3[n-]2)c1C.[Na+] (stereo unspecified) [RABEPRAZOLE SODIUM]", "1210 nM"]
]}

====

SYSTEM_UNDER_TEST: Bile salt export pump (Homo sapiens, UniProt O95342)
Sequence (O95342 whole entry): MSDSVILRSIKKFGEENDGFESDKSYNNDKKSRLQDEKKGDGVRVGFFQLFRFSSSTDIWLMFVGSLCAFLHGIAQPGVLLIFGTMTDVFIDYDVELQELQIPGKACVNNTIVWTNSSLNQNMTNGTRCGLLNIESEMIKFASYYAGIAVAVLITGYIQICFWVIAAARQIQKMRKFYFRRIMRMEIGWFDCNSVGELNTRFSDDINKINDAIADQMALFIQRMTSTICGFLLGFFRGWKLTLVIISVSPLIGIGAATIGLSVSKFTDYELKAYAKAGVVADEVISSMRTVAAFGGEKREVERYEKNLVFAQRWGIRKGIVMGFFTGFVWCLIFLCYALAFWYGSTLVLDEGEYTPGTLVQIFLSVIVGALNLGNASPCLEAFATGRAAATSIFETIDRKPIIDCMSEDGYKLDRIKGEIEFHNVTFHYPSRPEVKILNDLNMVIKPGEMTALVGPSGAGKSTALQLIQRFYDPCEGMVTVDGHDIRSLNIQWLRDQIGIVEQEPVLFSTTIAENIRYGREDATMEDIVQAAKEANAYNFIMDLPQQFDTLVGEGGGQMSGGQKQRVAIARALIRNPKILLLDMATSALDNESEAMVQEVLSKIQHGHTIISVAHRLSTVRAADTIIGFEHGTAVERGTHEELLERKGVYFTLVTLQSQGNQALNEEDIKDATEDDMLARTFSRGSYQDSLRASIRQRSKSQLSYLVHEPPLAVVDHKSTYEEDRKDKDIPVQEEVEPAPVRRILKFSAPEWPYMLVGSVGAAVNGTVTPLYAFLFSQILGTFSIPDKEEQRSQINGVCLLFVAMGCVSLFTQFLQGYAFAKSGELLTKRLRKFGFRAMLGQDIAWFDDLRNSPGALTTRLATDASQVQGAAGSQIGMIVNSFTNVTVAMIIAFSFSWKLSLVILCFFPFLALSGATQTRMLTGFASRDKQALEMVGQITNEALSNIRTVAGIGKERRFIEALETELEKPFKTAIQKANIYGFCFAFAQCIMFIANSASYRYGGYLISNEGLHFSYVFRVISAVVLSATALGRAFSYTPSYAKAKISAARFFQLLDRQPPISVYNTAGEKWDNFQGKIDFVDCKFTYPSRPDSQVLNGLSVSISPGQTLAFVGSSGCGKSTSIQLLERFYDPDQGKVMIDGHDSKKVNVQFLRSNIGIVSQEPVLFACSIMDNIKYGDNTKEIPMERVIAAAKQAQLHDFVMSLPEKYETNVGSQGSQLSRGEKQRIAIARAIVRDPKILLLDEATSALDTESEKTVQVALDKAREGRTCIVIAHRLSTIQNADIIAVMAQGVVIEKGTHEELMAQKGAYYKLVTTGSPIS
ASSAY_SUMMARY: Inhibition of human BSEP overexpressed in Sf9 cell membrane vesicles assessed as uptake of [3H]-taurocholate in presence of ATP measured after 15 to 20 mins by membrane vesicle transport assay
PROPERTY_NAME: IC50

{"columns": ["COMPOUND", "SYSTEM_UNDER_TEST", "RESULT"],
 "data": [
  ["O=C1CN=C(c2ccccc2)c2cc([N+](=O)[O-])ccc2N1", "Bile salt export pump (Homo sapiens, UniProt O95342)", "> 133 µM"],
  ["CN(C)CCc1c[nH]c2ccc(Cn3cncn3)cc12 [RIZATRIPTAN BENZOATE]", "Bile salt export pump (Homo sapiens, UniProt O95342)", "> 133 µM"],
  ["COC(=O)C1=C(C)NC(C)=C(C(=O)OC(C)C)C1c1cccc2nonc12 (stereo not drawn)", "Bile salt export pump (Homo sapiens, UniProt O95342)", "28 µM"],
  ["CN(CCOc1ccc(NS(C)(=O)=O)cc1)CCc1ccc(NS(C)(=O)=O)cc1 [DOFETILIDE]", "Bile salt export pump (Homo sapiens, UniProt O95342)", "> 133 µM"],
  ["CC(C)OC(=O)CCC/C=C\\C[C@@H]1[C@@H](CC[C@@H](O)CCc2ccccc2)[C@H](O)C[C@@H]1O", "Bile salt export pump (Homo sapiens, UniProt O95342)", "12.9 µM"],
  ["N[C@@H](CC(=O)N1CCn2c(nnc2C(F)(F)F)C1)Cc1cc(F)c(F)cc1F", "Bile salt export pump (Homo sapiens, UniProt O95342)", "> 133 µM"],
  ["Nc1nc(O)c2ncn(COC(CO)CO)c2n1", "Bile salt export pump (Homo sapiens, UniProt O95342)", "> 133 µM"],
  ["Cc1ccccc1C(=O)Nc1ccc(C(=O)N2CCCC(O)c3cc(Cl)ccc32)c(C)c1 (stereo not drawn)", "Bile salt export pump (Homo sapiens, UniProt O95342)", "9.99 µM"]
]}
